# Ki per entry
Test system: delta opioid receptor (Rattus norvegicus, UniProt P33533)
Sequence (P33533 whole entry): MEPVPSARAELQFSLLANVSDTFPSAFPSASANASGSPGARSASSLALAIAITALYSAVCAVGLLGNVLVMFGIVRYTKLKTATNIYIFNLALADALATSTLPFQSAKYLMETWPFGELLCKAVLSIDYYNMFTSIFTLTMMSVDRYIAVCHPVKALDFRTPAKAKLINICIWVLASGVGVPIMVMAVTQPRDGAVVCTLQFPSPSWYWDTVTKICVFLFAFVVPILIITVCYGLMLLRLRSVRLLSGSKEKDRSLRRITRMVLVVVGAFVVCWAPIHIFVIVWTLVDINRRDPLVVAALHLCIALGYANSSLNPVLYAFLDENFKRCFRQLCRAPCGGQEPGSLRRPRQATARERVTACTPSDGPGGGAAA
Experiment description: Rat brain delta opioid receptor binding assay ([3H]DPDPE)
Details: DOR Ki, Rat delta opioid receptor binding constant; rat forebrain membranes, ~4 nM [3H]DPDPE
# value in nM; strip the unit string

Data request: Query (compound): c1cncc(-c2ccc3c(c2)Oc2ccccc2C3=C2CC3CCC(C2)N3)c1 [Cpd 12] ; field requested: Ki
Data returned: 24

New cases:
Data request: Query (compound): CC(=O)Nc1ccccc1-c1ccc2c(c1)Sc1ccccc1C2=C1CC2CCC(C1)N2Cc1ccoc1 [Cpd 120] ; field requested: Ki
Data returned: 54

Data request: Query (compound): COc1cccc(C2CCCN(C(=O)c3ccc4c(c3)Oc3ccccc3C4=C3CC4CCC(C3)N4)C2)c1 (stereo not shown) [Cpd 65] ; field requested: Ki
Data returned: 88

Data request: Query (compound): COc1cccc(-c2ccc3c(c2)Oc2ccccc2C3=C2CC3CCC(C2)N3)c1 [Cpd 57] ; field requested: Ki
Data returned: 6960
